The reported measurements were obtained from ChEMBL document CHEMBL1641374.

Test system: SF-268
Assay: Cytotoxicity against human SF268 cells after 72 hrs by MTS assay
Format: functional, cell-based
Details: SF-268, 72 h
measurement-kind: pIC50
Note on units: pIC50 is unitless, being -log10 of a concentration expressed in mol/L.

COc1ccc(-c2oc3c(OC)c(OC)c(OC)c(O)c3c(=O)c2OC)cc1N    6.40

Next compound, please.
pIC50 in this record for COc1ccc(-c2oc3c(OC)c(OC)c(OC)c(O)c3c(=O)c2OC)cc1O : 6.73

---

System: KB
Assay: Cytotoxicity against human KB cells at 10^-6 M after 72 hrs by MTS assay
Assay type: functional
measurement-kind: Activity

Below are worked cases with known answers.
COc1ccc(-c2oc3c(OC)c(OC)c(OC)cc3c(=O)c2OC)cc1N    84%
COc1ccc(-c2oc3c(OC)c(OC)c(OC)c(O)c3c(=O)c2OC)cc1 [5-HYDROXYAURANETIN]    73%
COc1ccc(-c2oc3c(OC)c(OC)c(OC)c(OC)c3c(=O)c2OC)cc1N    17%
COc1ccc(-c2oc3c(OC)c(OC)c(OC)c(O)c3c(=O)c2OC)cc1N(C)C    13%
COc1ccc(-c2oc3c(OC)c(OC)c(OC)c(O)c3c(=O)c2OC)cc1-c1cc(-c2oc3c(OC)c(OC)c(OC)c(O)c3c(=O)c2OC)ccc1OC    <=13%

Next molecule, please.
Activity in this record for COc1ccc(-c2oc3c(OC)c(OC)c(OC)c(O)c3c(=O)c2OC)cc1CO : <=13%

---

System: KB
Assay: Cytotoxicity against human KB cells after 72 hrs by MTS assay
Assay type: functional, cell-based
measurement-kind: pIC50
Note on units: pIC50 is unitless, being -log10 of a concentration expressed in mol/L.

Below are worked cases with known answers.
COc1ccc(-c2oc3c(OC)c(OC)c(OC)c(O)c3c(=O)c2OC)cc1 [5-HYDROXYAURANETIN]    6.14
COc1ccc(-c2oc3c(OC)c(OC)c(O)c(O)c3c(=O)c2OC)cc1N    5.00
COc1ccc(-c2oc3c(OC)c(OC)c(OC)c(O)c3c(=O)c2OC)cc1N    7.60
COc1ccc(-c2oc3c(OC)c(OC)c(OC)cc3c(=O)c2OC)cc1N    7.11
COc1ccc(-c2oc3c(OC)c(OC)c(OC)c(N)c3c(=O)c2OC)cc1N    6.89

pIC50 in this record for COc1ccc(-c2oc3c(OC)c(O)c(OC)c(O)c3c(=O)c2OC)cc1N : 5.21

---

Tested on: KB
Assay: Cytotoxicity against human KB cells at 10^-6 M after 72 hrs by MTS assay
Assay type: functional
measurement-kind: Activity

COc1ccc(-c2oc3c(OC)c(OC)c(OC)c(O)c3c(=O)c2OC)cc1C=O    <=13%
COc1c(OC)c(O)c2c(=O)c(OC)c(-c3ccc(O)c(C=O)c3)oc2c1OC    <=13%
COc1ccc(-c2oc3c(OC)c(OC)c(OC)c(O)c3c(=O)c2OC)cc1I    <=13%
